- measurement target: HIF-2α (Homo sapiens)
- protocol details: HIF-2α Luciferase Reporter Assay (serum), HRE-luciferase 786-0 cells in 100% human serum
- Type: cell-based
- stated conditions: ratio of IC50 in 100% serum to IC50 in serum free conditions; approximate
- Description: Generation of HIF-2α Luciferase 786-0 Cell Line: Stable cell lines were generated by transducing 786-0 cells (ATCC, CRL-1932) with Cignal Lenti HIF Luc Reporter lentivirus (CLS-007L, Qiagen) according to the manufacturer's guidelines. In brief, 0.3×10^6 786-0 cells were transduced with lentivirus at a multiplicity of infection (MOI) of 25 for 24 hours. […]
property: Serum Shift (approximate)

Look over these answered cases.
O[C@H]1c2c(C(F)(F)F)nn(CC3CC(F)(F)C3)c2CCC1(F)F [Example 2]
13
O[C@H]1c2c(C(F)(F)F)nn([C@@H]3C[C@@H](F)[C@@H](F)[C@@H](F)C3)c2[C@@H](F)C1(F)F (single isomer, unassigned) [146/147 DIAST-2]
8
O[C@H]1c2c(C(F)(F)F)nn(CCC3CC3(F)F)c2CC1(F)F (some centres unmarked) [Example 58]
3

I: O[C@H]1c2c(C(F)(F)F)nn([C@H]3C[C@H](F)C[C@H](F)C3)c2CC1(F)F [Example 71]
II: O[C@H]1c2c(C(F)(F)F)nn(C3CC4(C3)CC(F)(F)C4)c2C[C@H]1F [Example 67]
Lab note: check whether I or II has the lower measured Serum Shift (approximate). Field: selected label. Fill in the label of the entry you choose.
II
(II: 7, I: 18)

* * *

Recorded pIC50 by entry
- measurement target: HIF-2α (Homo sapiens, UniProt Q99814)
- Sequence (Q99814 whole entry): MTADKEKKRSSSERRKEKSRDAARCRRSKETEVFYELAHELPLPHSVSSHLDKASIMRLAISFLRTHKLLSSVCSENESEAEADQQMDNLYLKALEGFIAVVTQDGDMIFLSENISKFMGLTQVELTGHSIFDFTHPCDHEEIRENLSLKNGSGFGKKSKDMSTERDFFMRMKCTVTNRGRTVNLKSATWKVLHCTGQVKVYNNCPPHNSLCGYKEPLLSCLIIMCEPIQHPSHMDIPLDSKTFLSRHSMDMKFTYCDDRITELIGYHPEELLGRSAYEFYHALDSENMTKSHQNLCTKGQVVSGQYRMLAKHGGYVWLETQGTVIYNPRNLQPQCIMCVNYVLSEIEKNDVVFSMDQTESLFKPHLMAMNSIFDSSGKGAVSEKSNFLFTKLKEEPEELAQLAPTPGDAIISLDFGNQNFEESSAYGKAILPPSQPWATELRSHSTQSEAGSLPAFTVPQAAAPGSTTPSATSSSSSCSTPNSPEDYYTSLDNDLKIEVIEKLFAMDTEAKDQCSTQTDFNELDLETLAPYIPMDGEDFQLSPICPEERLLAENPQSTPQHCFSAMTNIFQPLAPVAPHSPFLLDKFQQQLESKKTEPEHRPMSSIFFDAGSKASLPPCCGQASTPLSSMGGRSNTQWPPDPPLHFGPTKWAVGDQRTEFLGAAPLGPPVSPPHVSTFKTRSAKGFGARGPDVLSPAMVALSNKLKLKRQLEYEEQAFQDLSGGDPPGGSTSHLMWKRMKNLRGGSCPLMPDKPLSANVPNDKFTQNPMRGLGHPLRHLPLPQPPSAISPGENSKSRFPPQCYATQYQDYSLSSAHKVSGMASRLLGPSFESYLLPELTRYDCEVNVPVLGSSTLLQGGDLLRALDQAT
- protocol details: HIF-2α Luciferase Reporter Assay (serum free) in HIF-Luc-786-0 cells
- Format: cell-based
- stated conditions: Opti-MEM, 786-0 reporter cells, 20 hours incubation
pIC50: −log10 of the molar value.

O=S1(=O)CC2(CC(n3nc(C(F)(F)F)c4c3CC(F)(F)[C@H]4O)C2)C1
< 6.00
O[C@H]1c2c(C(F)(F)F)nn([C@@H]3CCC[C@H](OC(F)F)C3)c2CC1(F)F (racemic)
> 7.00
O[C@H]1c2c(C(F)(F)F)nn(CCCOC(F)(F)F)c2CCC1(F)F
> 7.00
O=S1(=O)CC(Cn2nc(C(F)(F)F)c3c2[C@H](F)C(F)(F)[C@H]3O)C1 (single isomer, unassigned) [144/145 DIAST-1]
6.00 to 7.00
O[C@H]1c2c(C(F)(F)F)nn([C@@H]3CCC(F)(F)[C@@H](F)C3)c2CC1(F)F
> 7.00

Per the records, this compound ( O[C@H]1c2c(C(F)(F)F)nn(CCCC(F)(F)F)c2[C@H](F)C1(F)F (single isomer, unassigned) ) has pIC50 equal to > 7.00

Per the records, this compound ( F[C@H]1c2c(C(F)(F)F)nn(CCCC(F)(F)F)c2CCC1(F)F ) has pIC50 equal to < 6.00

Per the records, this compound ( O[C@H]1c2c(C(F)(F)F)nn(CCC3CC3(F)F)c2CC1(F)F (stereo partly shown) ) has pIC50 equal to > 7.00

Per the records, this compound ( O[C@H]1c2c(C(F)(F)F)nn([C@H]3C[C@H](F)C[C@H](F)C3)c2CC1(F)F ) has pIC50 equal to > 7.00

Per the records, this compound ( CCC(F)(F)Cn1nc(C(F)(F)F)c2c1CCC(F)(F)[C@H]2O ) has pIC50 equal to < 6.00

* * *

- measurement target: HIF-2α (Homo sapiens, UniProt Q99814)
- protocol details: HIF-2α Luciferase Reporter Assay (serum), HRE-luciferase 786-0 cells in 100% human serum
- Format: cell-based
- stated conditions: ratio of IC50 in 100% serum to IC50 in serum free conditions; approximate
property: Serum Shift (approximate)

P: O[C@H]1c2c(C(F)(F)F)nn(CCSC(F)F)c2CCC1(F)F [Example 18]
Q: O[C@H]1c2c(C(F)(F)F)nn(CCCOC(F)(F)F)c2C[C@H]1F [Example 62]
Lab note: check whether P or Q has the lower measured Serum Shift (approximate). Field: selected label. Fill in the label of the entry you choose.
Q

* * *

- measurement target: UniProtKB Q99814
- protocol details: HIF-2α Luciferase Reporter Assay (serum free) in HIF-Luc-786-0 cells
- Type: cell-based
- stated conditions: Opti-MEM, 786-0 reporter cells, 20 hours incubation
property: IC50

Look over these answered cases.
O[C@H]1c2c(C(F)(F)F)nn(CCc3ccoc3)c2CC1(F)F
< 100 nM
O[C@H]1c2c(C(F)(F)F)nn(CCC3CCCO3)c2CCC1(F)F (some centres unmarked)
> 1000 nM
O[C@H]1c2c(C(F)(F)F)nn(CC3CC3)c2CCC1(F)F
> 1000 nM
O[C@H]1c2c(C(F)(F)F)nn(CC3CC3C(F)(F)F)c2CCC1(F)F (some centres unmarked)
100 to 1000 nM

Per the records, this compound ( O[C@@H]1c2c(C(F)(F)F)nn([C@H]3CC[C@H](F)[C@H](F)C3)c2[C@H](F)C1(F)F (single isomer, unassigned) ) has IC50 equal to < 100 nM

* * *

- measurement target: HIF-2α (Homo sapiens)
- protocol details: HIF-2α Luciferase Reporter Assay (serum), HRE-luciferase 786-0 cells in 100% human serum
- Assay type: cell-based
- stated conditions: ratio of IC50 in 100% serum to IC50 in serum free conditions; approximate
- Description: Generation of HIF-2α Luciferase 786-0 Cell Line: Stable cell lines were generated by transducing 786-0 cells (ATCC, CRL-1932) with Cignal Lenti HIF Luc Reporter lentivirus (CLS-007L, Qiagen) according to the manufacturer's guidelines. In brief, 0.3×10^6 786-0 cells were transduced with lentivirus at a multiplicity of infection (MOI) of 25 for 24 hours. […]
property: Serum Shift (approximate)

Look over these answered cases.
O[C@H]1c2c(C(F)(F)F)nn(CC3CC3C(F)(F)F)c2CCC1(F)F (some centres unmarked)
7
O[C@H]1c2c(C(F)(F)F)nn(CCc3ccco3)c2CC1(F)F
10

I: O[C@H]1c2c(C(F)(F)F)nn([C@H]3CC[C@H](OC(F)F)C3)c2CC1(F)F (racemic)
II: O[C@H]1c2c(C(F)(F)F)nn(CCC3CC3(F)F)c2CCC1(F)F (some centres unmarked)
III: O[C@H]1c2c(C(F)(F)F)nn([C@H]3C[C@H](COC(F)F)C3)c2CC1(F)F
Rank the 3 compounds: largest Serum Shift (approximate) first, smallest last. Answer by listing the labels in the requested order.
I, III, II

P: O[C@H]1c2c(C(F)(F)F)nn([C@H]3CCC(F)(F)[C@H](F)C3)c2CC1(F)F
Q: O[C@H]1c2c(C(F)(F)F)nn([C@H]3CC[C@@H](F)[C@@H](F)C3)c2CC1(F)F (racemic) [91 DIAST-2]
Exercise: compare P and Q ; which one has the greater Serum Shift (approximate)? Field: selected label. Fill in the label of the entry you choose.
Q

* * *

- measurement target: HIF-2α (Homo sapiens, UniProt Q99814)
- protocol details: HIF-2α Luciferase Reporter Assay (serum), HRE-luciferase 786-0 cells in 100% human serum
- Type: cell-based
- stated conditions: ratio of IC50 in 100% serum to IC50 in serum free conditions; approximate
property: Serum Shift (approximate)

Look over these answered cases.
O[C@H]1c2c(C(F)(F)F)nn(C3CC4(C3)CC(F)(F)C4)c2[C@@H](F)[C@@H]1F (single isomer, unassigned) [Example 134]
13
CO[C@H](CCn1nc(C(F)(F)F)c2c1[C@H](F)C(F)(F)[C@H]2O)C(F)(F)F (single isomer, unassigned) [148/149 DIAST-1]
9

I: O[C@H]1c2c(C(F)(F)F)nn(C3CCC(F)(F)C3)c2CC1(F)F (mixture of isomers) [Example 54]
II: O[C@H]1c2c(C(F)(F)F)nn(CCCOC(F)(F)F)c2CCC1(F)F [Example 30]
III: O[C@H]1c2c(C(F)(F)F)nn(CCCOC(F)(F)F)c2[C@@H](F)CC1(F)F (single isomer, unassigned) [129/130 DIAST-1]
Rank the 3 compounds: largest Serum Shift (approximate) first, smallest last. Answer by listing the labels in the requested order.
III, II, I
(III: 18, II: 8, I: 5)

a: O=S1(=O)CC(Cn2nc(C(F)(F)F)c3c2[C@@H](F)C(F)(F)[C@H]3O)C1 (single isomer, unassigned) [144/145 DIAST-2]
b: CC(C#N)CCn1nc(C(F)(F)F)c2c1CC(F)(F)[C@H]2O (stereo partly shown) [Example 55]
Lab note: check whether a or b has the lower measured Serum Shift (approximate). Field: selected label. Fill in the label of the entry you choose.
b
(b: 1, a: 3)

Data credit: patent US12071411B2
